Biological target: Peroxisome proliferator-activated receptor delta (Mus musculus, UniProt P35396)
Assay: Transactivation of mouse PPARdelta expressed in CV1 cells
Assay type: cell-based, CV-1
Conditions: cv-1
property_name: EC50 (µM)
Give the value, in units of µM, as a plain number.

Prompt: Requested read-out: EC50. Entry: C[C@H]1C[C@@](C)(CCCCCCCCCCCCc2ccccc2)OC1=O (stereo in doubt; 1a)
Response: 22

* * *

Molecular target: Peroxisome proliferator-activated receptor delta (Mus musculus)
Sequence (P35396 whole entry): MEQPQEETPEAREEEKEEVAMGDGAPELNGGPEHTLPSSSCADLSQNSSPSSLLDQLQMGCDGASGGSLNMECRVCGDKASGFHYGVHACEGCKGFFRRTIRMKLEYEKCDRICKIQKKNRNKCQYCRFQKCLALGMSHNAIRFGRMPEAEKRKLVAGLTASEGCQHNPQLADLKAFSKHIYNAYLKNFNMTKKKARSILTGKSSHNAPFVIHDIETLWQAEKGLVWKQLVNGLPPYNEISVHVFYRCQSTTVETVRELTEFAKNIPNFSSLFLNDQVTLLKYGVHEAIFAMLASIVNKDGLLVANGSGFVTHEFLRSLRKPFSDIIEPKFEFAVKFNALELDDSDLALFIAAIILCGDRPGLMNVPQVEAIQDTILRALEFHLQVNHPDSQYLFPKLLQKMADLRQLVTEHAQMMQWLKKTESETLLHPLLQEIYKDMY
Experiment: Transactivation of mouse PPARdelta expressed in CV1 cells
Format: cell-based, CV-1
property_name: pEC50
Scale explanation: pEC50 corresponds to minus log10 of a concentration expressed in moles per litre.

Prompt: Requested read-out: pEC50. Entry: C[C@@H]1C[C@@](C)(CCCCCCCCCCCCc2ccccc2)OC1=O
Response: 5.05

Prompt: Requested read-out: pEC50. Entry: C[C@@H]1C[C@](C)(CCCCCCCCCCCCc2ccccc2)OC1=O
Response: 4.47

Prompt: Requested read-out: pEC50. Entry: C[C@H]1C[C@@](C)(CCCCCCCCCCCCc2ccccc2)OC1=O (stereo in doubt)
Response: 4.66

Prompt: Requested read-out: pEC50. Entry: C[C@H]1C[C@](C)(CCCCCCCCCCCCc2ccccc2)OC1=O (stereo in doubt; (+)-1c)
Response: 4.62

Prompt: Requested read-out: pEC50. Entry: C[C@H]1C[C@](C)(CCCCCCCCCCCCc2ccccc2)OC1=O (stereo in doubt)
Response: 4.80

* * *

Biological target: Peroxisome proliferator-activated receptor alpha (Mus musculus, UniProt P23204)
Sequence (P23204 whole entry): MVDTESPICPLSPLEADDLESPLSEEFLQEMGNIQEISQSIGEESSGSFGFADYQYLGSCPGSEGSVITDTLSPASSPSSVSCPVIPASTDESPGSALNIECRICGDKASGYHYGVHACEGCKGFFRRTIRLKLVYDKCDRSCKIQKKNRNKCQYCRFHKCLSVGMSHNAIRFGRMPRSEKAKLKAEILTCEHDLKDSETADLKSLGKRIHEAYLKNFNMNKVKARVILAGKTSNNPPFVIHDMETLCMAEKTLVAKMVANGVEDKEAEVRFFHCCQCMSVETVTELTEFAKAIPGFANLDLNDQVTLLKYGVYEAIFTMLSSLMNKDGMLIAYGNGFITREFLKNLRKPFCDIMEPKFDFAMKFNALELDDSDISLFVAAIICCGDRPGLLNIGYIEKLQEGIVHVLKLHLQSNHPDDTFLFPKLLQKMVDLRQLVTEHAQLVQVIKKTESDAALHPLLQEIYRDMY
Assay: Transactivation of mouse PPARalpha expressed in CV1 cells
property_name: EC50
Please answer using the number first and the unit second.

Prompt: Requested read-out: EC50. Entry: C[C@@H]1C[C@@](C)(CCCCCCCCCCCCc2ccccc2)OC1=O
Response: 12 µM

Prompt: Requested read-out: EC50. Entry: C[C@H]1C[C@@](C)(CCCCCCCCCCCCc2ccccc2)OC1=O (stereo in doubt; 1a)
Response: 20 µM

Prompt: Requested read-out: EC50. Entry: C[C@@H]1C[C@](C)(CCCCCCCCCCCCc2ccccc2)OC1=O
Response: 39 µM

Prompt: Requested read-out: EC50. Entry: C[C@H]1C[C@@](C)(CCCCCCCCCCCCc2ccccc2)OC1=O (stereo in doubt)
Response: 24 µM

Prompt: Requested read-out: EC50. Entry: C[C@H]1C[C@](C)(CCCCCCCCCCCCc2ccccc2)OC1=O (stereo in doubt; (+)-1c)
Response: 25 µM

Prompt: Requested read-out: EC50. Entry: C[C@H]1C[C@](C)(CCCCCCCCCCCCc2ccccc2)OC1=O (stereo in doubt)
Response: 13 µM
